Hello, the source for this data is patent EP4748844A1, in case you need it.

System: ISG gene expression induced by MSA-2 in human THP1-Blue-ISG cells
Assay Notes: Inhibition of MSA-2-induced ISG gene expression in human THP1-Blue-ISG cells (Quanti-Blue, OD650)
Assay type: cell-based
Experimental Parameters: STING agonist MSA-2 10 µM, incubated for 24 hours
This listing pairs compounds with measured pIC50.
# pIC50 is unitless: minus log10 of the molar concentration; print number only

Before answering, review these 5 worked examples.
[
  {
    "Compound": "O=C(Nc1c[nH]c2ccccc12)c1ccc2c(c1)SCC(=O)N2Cc1ccoc1",
    "Tgt": "ISG gene expression induced by MSA-2 in human THP1-Blue-ISG cells",
    "pIC50": 6.86
  },
  {
    "Compound": "CC1(C)C(=O)N(CC2CN(c3ccccc3)C2)c2cc(NC(=O)Nc3c[nH]c4ccccc34)ccc21",
    "Tgt": "ISG gene expression induced by MSA-2 in human THP1-Blue-ISG cells",
    "pIC50": 6.43
  },
  {
    "Compound": "COc1cccc(N2CC(CN3C(=O)C(C)(C)c4ccc(C(=O)Nc5c[nH]c6ccccc56)cc43)C2)c1",
    "Tgt": "ISG gene expression induced by MSA-2 in human THP1-Blue-ISG cells",
    "pIC50": 6.88
  },
  {
    "Compound": "CC1(C)C(=O)N(CC2CN(c3cc(Cl)cc(C(F)(F)F)c3)C2)c2cc(C(=O)Nc3c[nH]c4ccccc34)ccc21",
    "Tgt": "ISG gene expression induced by MSA-2 in human THP1-Blue-ISG cells",
    "pIC50": 7.25
  },
  {
    "Compound": "CC1(C)C(=O)N(Cc2ccccc2)c2cc(NC(=O)c3c[nH]c4ccccc34)ccc21 [C, reference compound]",
    "Tgt": "ISG gene expression induced by MSA-2 in human THP1-Blue-ISG cells",
    "pIC50": 5.81
  }
]

For this compound ( O=C(Nc1c[nH]c2ccccc12)c1ccc2c(c1)N(CC1CN(c3cc(F)cc(C(F)(F)F)c3)C1)C(=O)CS2 ), measured pIC50 is 6.60

For this compound ( O=C(Nc1c[nH]c2ccccc12)c1ccc2c(c1)N(Cc1ccsc1)C(=O)CS2 ), measured pIC50 is 7.25
